# System: U251 CNS
# assay.summary: NCI-60 one-dose screen, 48 h (100 = growth as untreated, 0 = no growth, -100 = all killed)
# assay.setup: 10 µM unless noted
This is part of a sample that, as a whole, favours compounds with a hit. Of some 83,000 tested, about 20% had one in any assay.
Record T whenever growth is at 30% or higher; record F when lower.

Please review the entries below; each comes with its answer.
> print(dat)
                                   compound  classification
1  Cc1c(Cl)cccc1C(=O)Nc1nc2c(s1)CN(C(=O)c1ccc(C(F)(F)F)cc1)CC2               F
2  CCOC(=O)c1cnc2c(N=Nc3ccc(OC)cc3)c(N)nn2c1N               T
3  CC1=C(C(=O)Nc2ccccc2)C(c2ccc3c(c2)OCO3)NC(=S)N1 (configuration not stated)               T
4  Cc1cn(-c2cc(NC(=O)c3cncc(C#Cc4c(N)ncc5ccc(F)cc45)c3)cc(C(F)(F)F)c2)cn1               T
5  CNCc1cccc2c1OCCOCCOCCNS(=O)(=O)c1ccc(cc1)-c1cnc(N)c(n1)C(=O)N2               F
6       CSc1nn2c(-c3ccc4ccccc4c3)ccnc2c1C#N               F

Answer whether growth of Cc1ccc(/C=C(\C#N)n2nnc3cc(F)c(F)cc32)cc1 is greater than or equal to 30%. F

Does O=C(CCSc1nnc2n(Cc3ccccc3)c(=O)c3c4c(sc3n12)CCCC4)N1CCN(c2ccccc2)CC1 have a reported growth of at least 30%? T

Identify whether the reported growth of the following compound is 30% or greater: O=C(Nc1ncc(Cc2ccccc2)s1)c1ccc2c(c1)OCCCO2 T

Textbook exercise: given the entry O=C(CCCCCCN1CC(=O)N2[C@H](c3ccc(Br)cc3)c3[nH]c4ccccc4c3C[C@@H]2C1=O)NO , state whether its growth is greater than or equal to 30%. T

Test whether the compound Cn1c2c(c3ccc(Cl)c(Cl)c31)C(C#N)C(C)(C)NC2=O (configuration not stated) records growth of 30% or higher. T
